Test system: HCC-2998 colon
Measurement notes: NCI-60 one-dose screen, 48 h
Measurement conditions: 10 µM unless noted
Compounds without any hit were thinned out: in the full panel of roughly 83,000, 20% have a hit. Activity calls are given as the source filed them. The calls were made as follows: active = growth percent below 10; inactive = the rest.
Permitted responses: active, inactive

Qu. Kindly provide the recorded test outcome for the following compound: Cc1c(C(N)=O)sc2ncn(CC(=O)NN=C3CCCCC3)c(=O)c12
Ans. inactive

Qu. Kindly provide the recorded test outcome for the following compound: O=C(Nc1cccc(-n2ccc3c(NC(=O)c4ccccc4)nccc32)c1)c1ccc(N2CCOCC2)c(C(F)(F)F)c1
Ans. active

Qu. Kindly provide the recorded test outcome for the following compound: COc1ccc2c(c1)OC1=C(C(=O)OC1)C2c1cc(OC)c2c(c1)OCCO2 (configuration not stated)
Ans. inactive

Qu. Kindly provide the recorded test outcome for the following compound: CN1C(=O)N(C)C2C1NN=c1s/c(=C\c3ccsc3)c(=O)n12 (configuration not stated)
Ans. inactive

Qu. Kindly provide the recorded test outcome for the following compound: CC(CN1CCN(CC(C)Nc2ccnc3cc(Cl)ccc23)CC1)Nc1ccnc2cc(Cl)ccc12 (configuration not stated)
Ans. active

Qu. Kindly provide the recorded test outcome for the following compound: Cc1c2c(cc3c1[nH]c1ccccc13)C=NCC2
Ans. inactive

Qu. Kindly provide the recorded test outcome for the following compound: CCCCOc1nc2ccccc2cc1/C=C/c1cc(/C=C/c2cc3ccccc3nc2OCCCC)n(-c2ccccc2)n1
Ans. inactive

* * *

System: HCT-15 colon
Measurement notes: NCI-60 one-dose screen, 48 h (100 = growth as untreated, 0 = no growth, -100 = all killed)
Measurement conditions: 10 µM unless noted
Compounds without any hit were thinned out: in the full panel of roughly 83,000, 20% have a hit.
Property measured: growth (%)
The response must be a number in % with no trailing unit.

Looking up COc1cccc(/C(C)=N/NC(=O)CSc2nc3ccccc3c(=O)n2CCc2ccc(S(N)(=O)=O)cc2)c1 , I found its growth recorded as 69.7

Looking up COc1cc(CN(CCC(O)N2CCCC2=O)Cc2ccc3c(c2)OCO3)cc(OC)c1OC (stereo not drawn) , I found its growth recorded as 97.5

Looking up O=C(N/N=C/c1ccccc1O)c1ccncc1 , I found its growth recorded as 28.5

* * *

System: MOLT-4 leukemia
Measurement notes: NCI-60 one-dose screen, 48 h (100 = growth as untreated, 0 = no growth, -100 = all killed)
Measurement conditions: 10 µM unless noted
About 83,000 compounds went through this panel and 20% of them were active in at least one assay; those are over-represented in the sample as a whole.
Labelling: growth reported below 60% becomes criterion met; at or above becomes criterion not met.

Qu. # TODO verify growth < 60% strictly for this molecule: COc1cc(C2CC(c3ccc(Cl)cc3)=NN2C(C)=O)ccc1Oc1nc2c(c(=O)n(C)c(=O)n2C)n1C (stereo not given)
Ans. criterion not met

Qu. # TODO verify growth < 60% strictly for this molecule: COc1ccccc1/C=C/C(=O)CCC(=O)O
Ans. criterion not met

Qu. # TODO verify growth < 60% strictly for this molecule: C#CCO[C@H]1CC[C@H](OCC#C)[C@@H]2[C@H]1[C@H]1C[C@@H]3[C@@]4(C)CCC[C@@](C)(C(=O)OC)[C@@H]4CC[C@@]23C=C1C(C)C
Ans. criterion met

Qu. # TODO verify growth < 60% strictly for this molecule: O/N=C1\c2ccccc2-c2ccc(Br)cc21
Ans. criterion not met

Qu. # TODO verify growth < 60% strictly for this molecule: COC(=O)C(Br)(C(=O)OC)C(Br)C(Br)C(Br)c1ccccc1 (stereo not given)
Ans. criterion met

* * *

System: HOP-62 NSCLC
Measurement notes: NCI-60 one-dose screen, 48 h
Measurement conditions: 10 µM unless noted
Protocol: Growth inhibition of the HOP-62 human Non-Small Cell Lung tumor cell line is measured as a screen for anti-cancer activity. Cells are grown in 96 well plates and exposed to the test compound for 48 hours. Compounds are tested at a single concentration, which is 10^-5 M for most compounds. The reported endpoint is percent growth (GI% or GIPRCNT), where numbers from 0 - 100% represent growth inhibition, and numbers from -100% - 0 represent cell death. […]
This is part of a sample that, as a whole, favours compounds with a hit. Of some 83,000 tested, about 20% had one in any assay. Active and inactive are the calls of the source. The calls were made as follows: active = growth percent below 10; inactive = the rest.
Permitted responses: active, inactive

Qu. Kindly provide the recorded test outcome for the following compound: CN1C(=O)N(C)C2C1NN=c1s/c(=C\c3ccsc3)c(=O)n12 (stereo unspecified)
Ans. inactive

Qu. Kindly provide the recorded test outcome for the following compound: C#CCNc1nc(NCCNC(=O)CCl)nc(N(C)CCCCc2ccccc2)n1
Ans. inactive

Qu. Kindly provide the recorded test outcome for the following compound: COc1ccc(/C=C(\C#N)c2cc(OC)c(OC)c(OC)c2)cc1
Ans. inactive

Qu. Kindly provide the recorded test outcome for the following compound: O=C(O)C(CCc1ccccc1)NCc1ccccc1 (stereo unspecified)
Ans. inactive

Qu. Kindly provide the recorded test outcome for the following compound: COc1cc(-c2nc(-c3ccc(-c4nc5ccc(F)cc5[nH]4)cc3)no2)cc(OC)c1OC
Ans. inactive

Qu. Kindly provide the recorded test outcome for the following compound: O=C(Nc1cccc(-n2ccc3c(NC(=O)c4ccccc4)nccc32)c1)c1ccc(Cl)c(Cl)c1
Ans. active

* * *

Test system: SR leukemia
Measurement notes: NCI-60 one-dose screen, 48 h (100 = growth as untreated, 0 = no growth, -100 = all killed)
Measurement conditions: 10 µM unless noted
Experimental: Growth inhibition of the SR human tumor cell line is measured as a screen for anti-cancer activity. Cells are grown in 96 well plates and exposed to the test compound for 48 hours. Compounds are tested at a single concentration, which is 10^-5 M for most compounds. The reported endpoint is percent growth (GI% or GIPRCNT), where numbers from 0 - 100% represent growth inhibition, and numbers from -100% - 0 represent cell death. For example, a value of 40 represents 60% growth inhibition. […]
The panel holds about 83,000 compounds, 20% with a hit somewhere; the sample as a whole holds those more often.
Give growth for every item shown.
The response must be a number in % with no trailing unit.

Looking up NC(=O)c1ccc[n+](Cc2ccccc2)c1 , I found its growth recorded as 109

Looking up CCCCCCCCCCCCCC1=NC(C)(C)CN1C(C)C , I found its growth recorded as -46.5

Looking up CC(=O)Nc1c(Br)cc2c(c1Br)Cc1cc(Br)ccc1-2 , I found its growth recorded as 54.4

Looking up CCOC(=O)Cc1cc(Br)c(OCc2ccccc2)c(Br)c1 , I found its growth recorded as 84.5

Looking up CCS(=O)(=O)Nc1cccc(Nc2c3cccc(C)c3nc3c(C)cccc23)c1OC , I found its growth recorded as 5.24

Looking up O=C(c1ccccc1)C(CCc1ccccn1)CCc1ccccn1 , I found its growth recorded as 83.3

Looking up C=CCOC(=O)C1=C(C)NC2=C(C(=O)CCC2)C1c1ccc(F)cc1 (configuration not stated) , I found its growth recorded as 92.2

* * *

System: HCT-15 colon
Measurement notes: NCI-60 one-dose screen, 48 h (100 = growth as untreated, 0 = no growth, -100 = all killed)
Measurement conditions: 10 µM unless noted
About 83,000 compounds went through this panel and 20% of them were active in at least one assay; those are over-represented in the sample as a whole.
Labelling: growth reported below 10% becomes yes; at or above becomes no.

Qu. # TODO verify growth < 10% strictly for this compound: CS(=O)(=O)c1ccc(C(=O)N/N=C/c2ccccc2O)cc1
Ans. no

Qu. # TODO verify growth < 10% strictly for this compound: COc1ccc(-c2nc3ccccc3n3cccc23)cc1
Ans. no

Qu. # TODO verify growth < 10% strictly for this compound: COc1ccc2c(c1)OC1=C(C(=O)OC1)C2c1cc(OC)c2c(c1)OCCO2 (stereo not given)
Ans. no

Qu. # TODO verify growth < 10% strictly for this compound: CNC(=O)c1c(NC(=O)c2cccc(C(F)(F)F)c2)sc2c1CCC(=O)C2
Ans. yes

Qu. # TODO verify growth < 10% strictly for this compound: CCOC(=O)C(Cc1ccccc1)n1c(O)c(/C=N/c2ncc(Cc3ccc(Cl)cc3Cl)s2)sc1=S (stereo not given)
Ans. no

* * *

Tested on: NCI/ADR-RES ovarian
Measurement notes: NCI-60 one-dose screen, 48 h (100 = growth as untreated, 0 = no growth, -100 = all killed)
Measurement conditions: 10 µM unless noted
About 83,000 compounds went through this panel and 20% of them were active in at least one assay; those are over-represented in the sample as a whole.
Property measured: growth (%)
The response must be a number in % with no trailing unit.

Looking up COC(=O)OC1C(O[C@H]2C[C@H]3[C@@H]4CC=C5C[C@@H](O)CC[C@]5(C)[C@H]4CC[C@]3(C)[C@H]2[C@H](C)C(=O)CCC(C)C)OCC(O)C1OC1OCC(O)C(O)C1OC(=O)c1ccc(OC)cc1 (some centres undefined) , I found its growth recorded as 70.5

Looking up CC(C)(C)[Si](C)(C)OC1[C@@H](O[Si](C)(C)C(C)(C)C)[C@@H](CNC(=O)NC(=O)NC(=O)CI)O[C@H]1n1cnc2c(NC(=O)Nc3ccccc3)ncnc21 (some centres undefined) , I found its growth recorded as 4.72

Looking up O=C1CCCN1C(O)CCN(Cc1ccccc1)Cc1ccc(Cl)cc1 (centres undefined) , I found its growth recorded as 106

Looking up Cc1nc(N)nc2c1CCC(Nc1ccccc1)S2 (centres undefined) , I found its growth recorded as 104

Looking up CCCCCCCC/C=C/CCCCCCCC1=NC(C)(C)CN1C(C)C , I found its growth recorded as -6.48

Looking up COc1cc2ncnc(Nc3ccc(S(=O)(=O)Nc4cc(C)on4)cc3)c2cc1OCCCN1CCN(c2ccc([N+](=O)[O-])cc2)CC1 , I found its growth recorded as 106

Looking up CNC(=O)c1c(NC(=O)c2cccc(C(F)(F)F)c2)sc2c1CCC(=O)C2 , I found its growth recorded as -7.1

Looking up CCCCCCCCN(CCCCCCCC)C(=O)CCl , I found its growth recorded as 94.7

Looking up CN1C(=O)NC(Cc2c[nH]c3c(Cl)cccc23)C1=O (centres undefined) , I found its growth recorded as 100

Looking up Cc1[nH]c2ccccc2c1C1=CC(=O)C=CC1=O , I found its growth recorded as 77

Looking up O=C(Nc1cccc(-n2ccc3c(NC(=O)c4ccccc4)nccc32)c1)c1ccc(Cl)c(Cl)c1 , I found its growth recorded as -28.1

Looking up CCN(CC)C(=O)O/N=C(/C)c1ccccc1 , I found its growth recorded as 103

Looking up C=C[C@H]1CCC/C=C/[C@@H]2C[C@H](O)C[C@H]2[C@H](O)/C=C/C(=O)O1 , I found its growth recorded as 5.21

Looking up CCCCCCCCCCCCCCCCCC(=O)[O][Sn]([CH2]CCC)([CH2]CCC)[CH2]CCC , I found its growth recorded as -86.6
